system: PvNMT (Plasmodium vivax, UniProt A5K1A2)
Construct: Gly-Pro stays on the protein after cleavage) (N, cleaved yes); host or cells: E. coli Rosetta 2 (DE3) pRARE
Sequence (A5K1A2 entry or part of it): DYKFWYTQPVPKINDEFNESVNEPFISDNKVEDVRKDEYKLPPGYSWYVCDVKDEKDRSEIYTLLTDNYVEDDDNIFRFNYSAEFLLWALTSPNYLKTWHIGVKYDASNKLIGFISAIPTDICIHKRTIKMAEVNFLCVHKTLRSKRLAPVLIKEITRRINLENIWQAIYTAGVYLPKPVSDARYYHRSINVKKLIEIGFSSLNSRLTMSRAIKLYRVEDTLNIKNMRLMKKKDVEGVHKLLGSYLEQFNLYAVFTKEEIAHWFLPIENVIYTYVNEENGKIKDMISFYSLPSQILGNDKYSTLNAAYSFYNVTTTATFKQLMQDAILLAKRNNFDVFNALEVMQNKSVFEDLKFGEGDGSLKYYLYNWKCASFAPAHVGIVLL
method: biochemical
Type: biochemical
assayConditions: Table 2
Protocol: NMT activity was indirectly measured through the detection of free CoA by the thiol-reactive probe 7-diethylamino-3-(4′-maleimidylphenyl)-4-methylcoumarin (CPM). This study aimed to identify NMT is with high selectivity for the P. vivax enzyme compared with human NMTs and high potency against the different stages of the P. vivax parasite. […] Cytotoxicity was assessed in the human hepatoma HepG2 cell line. […]
measurementLabel: IC50 (nM)
Give the quantity in nM, number only.

Solved entries:
CN(C)CCOc1cccc(-c2ccccc2OCCc2cccnc2)c1 [Compound 26e]: 12800
Cc1n[nH]c(C)c1CCOc1ccccc1-c1cccc(OCCN(C)C)c1 [Compound 26h]: 1560

Field: next molecule
Lookup result for Cc1nn(C)c(C)c1CCOc1cccnc1-c1cccc(OCCN(C)C)c1 [Compound 26a] ; measured IC50: 266

====

system: PvNMT (Plasmodium vivax, UniProt A5K1A2)
Construct: Gly-Pro stays on the protein after cleavage) (N, cleaved yes); host or cells: E. coli Rosetta 2 (DE3) pRARE
method: biochemical
Format: biochemical
assayConditions: Table 1; mean values of two or more determinations
Could you mark each record met if its IC50 falls strictly under 100 nM, and not met if it equals or exceeds it?

Cc1n[nH]c(C)c1CCOc1ccccc1-c1ccnc(N2CCNCC2)c1 [Compound 12n]: not met
Cc1nn(C)c(C)c1CCOc1cc(F)ccc1-c1cccc(N2CCNCC2)c1 [Compound 12f]: met
Fc1ccc(-c2ccnc(N3CCNCC3)c2)c(OCCc2cccnc2)c1 [Compound 12l]: met
c1cncc(CCOc2cccnc2-c2cccc(N3CCNCC3)c2)c1 [Compound 12g]: not met
Cc1nn(C)c(C)c1CCOc1cccnc1-c1ccnc(N2CCNCC2)c1 [Compound 12a]: met

Given Cc1n[nH]c(C)c1CCOc1ccccc1-c1cc(N2CCNCC2)ncn1 [Compound 16f] , is recorded IC50 strictly lower than 100 nM?
not met

I wonder whether Fc1ccc(-c2cccc(N3CCNCC3)c2)c(OCCc2cccnc2)c1 [Compound 12k] has IC50 below 100 nM. Can you tell?
not met

Answer whether the compound c1cncc(CCOc2ccccc2-c2cc(N3CCNCC3)ncn2)c1 [Compound 16c] has IC50 strictly less than 100 nM
not met

Hello, is IC50 of the following compound strictly smaller than 100 nM? Cc1n[nH]c(C)c1CCOc1cccnc1-c1cccc(N2CCNCC2)c1 [Compound 12m]
not met

Hi there! Is IC50 for Cc1nn(C)c(C)c1CCOc1cccnc1-c1cccc(N2CCNCC2)c1 [Compound 12b] below 100 nM, do you know?
met

Given Fc1ccc(-c2cc(N3CCNCC3)ncn2)c(OCCc2cccnc2)c1 [Compound 16d] , is recorded IC50 strictly lower than 100 nM?
not met

Does the reported IC50 of the following compound sit strictly below 100 nM? Cc1n[nH]c(C)c1CCOc1cc(F)ccc1-c1ccnc(N2CCNCC2)c1 [Compound 12q]
met

The measured values listed here are drawn from patent US20260217686A1.
